Kindly state Emax for each of the entries shown.
# MEASURED_ON: human M2 receptor (Homo sapiens, UniProt P08172)
# Sequence (P08172 1-466): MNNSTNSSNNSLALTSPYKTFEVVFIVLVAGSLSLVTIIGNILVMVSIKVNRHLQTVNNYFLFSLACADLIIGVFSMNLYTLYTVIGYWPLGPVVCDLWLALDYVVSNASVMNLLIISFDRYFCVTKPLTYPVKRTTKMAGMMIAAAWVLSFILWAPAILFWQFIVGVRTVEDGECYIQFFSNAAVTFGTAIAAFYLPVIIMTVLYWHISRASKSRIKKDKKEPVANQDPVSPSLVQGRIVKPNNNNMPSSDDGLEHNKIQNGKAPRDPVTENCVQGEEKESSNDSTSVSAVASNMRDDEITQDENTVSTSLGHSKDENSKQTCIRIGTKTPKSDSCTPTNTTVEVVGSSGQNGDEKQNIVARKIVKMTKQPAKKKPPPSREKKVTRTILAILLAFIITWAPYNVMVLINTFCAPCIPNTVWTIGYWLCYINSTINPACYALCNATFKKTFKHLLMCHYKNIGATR
# RUN_PARAMETERS: read-out: Efficiency, boosting of the acetylcholine effect at EC20 acetylcholine concentration; M2-GIRK1/4 reporter cells
Quick note: unit goes after the number.

As a guide, the following entries are already answered.
COMPOUND | OBSERVED_VALUE
O=C(NC1(C(F)(F)F)CCC1)c1cn(-c2c(F)cc(F)cc2F)c2nc(N3CCNC3=O)ccc2c1=O | 98.5%
O=C(N[C@@H](C1CC1)C(F)(F)F)c1cn(-c2c(F)cc(F)cc2F)c2nc(N3CC(CO)OC3=O)ccc2c1=O (mixture of isomers) | 98%
CC(NC(=O)c1cn(-c2c(F)cc(F)cc2F)c2nc(N3CCNC3=O)ccc2c1=O)(C(F)(F)F)C(F)(F)F | 98%
CC(C)(NC(=O)c1cn(-c2c(F)cc(F)cc2F)c2nc(N3C[C@@H](O)CC3=O)ccc2c1=O)C1CC1 | 100%
CC(NC(=O)c1cn(-c2ccc(F)cc2F)c2nc(N3C[C@@H](O)CC3=O)ccc2c1=O)C(F)(F)C(F)(F)F (mixture of isomers) [Example 622] | 93%

Quick one: give me Emax for each item below, same order please.
1. CCC(COC(F)(F)F)NC(=O)c1cn(-c2c(F)cc(F)cc2F)c2nc(N3C[C@@H](C)NC3=O)ccc2c1=O (mixture of isomers)
2. CC[C@@H](NC(=O)c1cn(-c2c(F)cccc2F)c2nc(N3CCNC3=O)ccc2c1=O)C(F)(F)F

Reply:
1. 98.5%
2. 100%

---

# MEASURED_ON: human M2 receptor (Homo sapiens, UniProt P08172)
# RUN_PARAMETERS: Receptor activity EC50, M2-GIRK1/4 activation test, acetylcholine at EC20; allosteric potency; in some cases mean values from two or more determinations
Kindly state EC50 for each of the entries shown.
One number for each entry, in nM.

As a guide, the following entries are already answered.
COMPOUND | OBSERVED_VALUE
O=C(N[C@H](C1CC1)C(F)(F)F)c1cn(-c2ccc(F)cc2F)c2nc(N3C[C@@H](O)CC3=O)ccc2c1=O [Example 271] | 40
CC(COC(F)(F)F)NC(=O)c1cn(-c2ccc(F)cc2F)c2nc(N3CCCC3=O)ccc2c1=O (racemic) [Example 230] | 203

Quick one: give me EC50 for each item below, same order please.
1. CC[C@@H](NC(=O)c1cn(-c2ccc(F)cc2F)c2nc(N3CC4CNC(=O)C4C3)ccc2c1=O)C(F)(F)F (mixture of isomers) [Example 221]
2. CC[C@@H](NC(=O)c1cn(-c2ccc(F)cc2F)c2nc(N3CC(O)C4(CC4)C3)ccc2c1=O)C(F)(F)F (some centres unmarked) [Example 355]
3. CN(CC(=O)O)c1ccc2c(=O)c(C(=O)N[C@@H](C3CC3)C(F)(F)F)cn(-c3c(F)cc(F)cc3F)c2n1 [Example 385]
4. O=C(N[C@@H](C1CC1)C(F)(F)F)c1cn(-c2c(F)cc(F)cc2F)c2nc(N3CCNS3(=O)=O)ccc2c1=O [Example 373]
5. CC[C@@H](NC(=O)c1cn(-c2c(F)cccc2F)c2nc(N3CCC(C)(O)C3)ccc2c1=O)C(F)(F)F (single isomer, unassigned) [Example 277]
6. CCC(NC(=O)c1cn(-c2ccc(F)cc2F)c2nc(N3CCN(C(=O)OC)CC3)ccc2c1=O)C(F)(F)F (single isomer, unassigned; enantiomer b) [Example 25]

Reply:
1: 106; 2: 85; 3: 68; 4: 89; 5: 78; 6: 84

Quick one: give me EC50 for each item below, same order please.
1. O=C(NC12CC3CC(CC(C3)C1)C2)c1cn(-c2ccc(F)cc2F)c2nc(N3CCOC[C@H]3CO)ccc2c1=O [Example 117]
2. O=C(NC(C1CC1)C(F)(F)F)c1cn(-c2c(F)cccc2F)c2nc(N3C[C@@H](O)CC3=O)ccc2c1=O (mixture of isomers) [Example 295]
3. CC[C@H](NC(=O)c1cn(-c2c(F)cc(F)cc2F)c2nc(N3C[C@@H](O)CC3=O)ccc2c1=O)C(F)(F)F [Example 332]
4. CC[C@@H](NC(=O)c1cn(-c2ccc(F)cc2F)c2nc(N3CC4CC4(O)C3)ccc2c1=O)C(F)(F)F (mixture of isomers) [Example 267]
5. CC[C@H](NC(=O)c1cn(-c2c(Cl)cc(F)cc2Cl)c2nc(N3C[C@@H](O)CC3=O)ccc2c1=O)C(F)(F)F [Example 389]

Reply:
[89, 21, 20, 24, 38]

---

# MEASURED_ON: human M2 receptor (Homo sapiens, UniProt P08172)
# Assay type: cell-based
# RUN_PARAMETERS: shift in the acetylcholine dose-response curve (Allosteric EC50 shift, GraphPad PRISM); α >1 = positive cooperativity
Mark Condition met for reported Cooperativity (alpha factor) of 20 or greater; mark Condition not met for anything smaller.

Task item: Would you say CC[C@H](NC(=O)c1cn(-c2c(F)cc(F)cc2F)c2nc(N3CCN(CCO)C3=O)ccc2c1=O)C(F)(F)F shows Cooperativity (alpha factor) at minimum 20?
Reply: Condition met

Task item: Would you say CCC(NC(=O)c1cn(-c2ccc(F)cc2F)c2nc(N3CCC(O)C3)ccc2c1=O)C(F)(F)F (stereo in doubt) shows Cooperativity (alpha factor) at minimum 20?
Reply: Condition met

Task item: Would you say CC[C@@H](NC(=O)c1cn(-c2c(F)cccc2F)c2nc(N3CC4CC4(O)C3)ccc2c1=O)C(F)(F)F (single isomer, unassigned) [Example 306] shows Cooperativity (alpha factor) at minimum 20?
Reply: Condition met

Task item: Would you say CN(CCF)c1ccc2c(=O)c(C(=O)NC(C(F)(F)F)C(F)(F)F)cn(-c3ccc(F)cc3F)c2n1 shows Cooperativity (alpha factor) at minimum 20?
Reply: Condition met

Task item: Would you say C[C@@H](COC(F)(F)F)NC(=O)c1cn(-c2c(F)cc(F)cc2F)c2nc(N3C[C@@H](O)CC3=O)ccc2c1=O shows Cooperativity (alpha factor) at minimum 20?
Reply: Condition met

Task item: Would you say CC[C@H](NC(=O)c1cn(-c2c(F)cc(F)cc2F)c2nc(N3C[C@@H](O)CC3=O)ccc2c1=O)C(F)(F)F shows Cooperativity (alpha factor) at minimum 20?
Reply: Condition met

Task item: Would you say O=C(NC(c1ccccc1Cl)C(F)(F)F)c1cn(-c2ccc(F)cc2F)c2nc(N3CC[C@H](F)C3)ccc2c1=O (stereo partly shown) shows Cooperativity (alpha factor) at minimum 20?
Reply: Condition not met

Task item: Would you say CN(CCO)c1ccc2c(=O)c(C(=O)N[C@@H](C3CC3)C(F)(F)F)cn(-c3c(F)cc(F)cc3F)c2n1 shows Cooperativity (alpha factor) at minimum 20?
Reply: Condition met

---

# MEASURED_ON: human M2 receptor (Homo sapiens, UniProt P08172)
# RUN_PARAMETERS: Receptor activity EC50, M2-GIRK1/4 activation test, acetylcholine at EC20; allosteric potency; in some cases mean values from two or more determinations
Kindly state EC50 for each of the entries shown.
Quick note: unit goes after the number.

As a guide, the following entries are already answered.
MOLECULE | EC50
CC[C@@H](NC(=O)c1cn(-c2ccc(F)cc2F)c2nc(N3CC(O)(C(F)(F)F)C3)ccc2c1=O)C(F)(F)F | 72 nM
CC[C@@H](NC(=O)c1cn(-c2ccc(F)cc2F)c2nc(N3CC[C@@H](F)[C@H](O)C3)ccc2c1=O)C(F)(F)F | 91 nM
O=C(NC12CC3CC(CC(C3)C1)C2)c1cn(-c2ccc(F)cc2F)c2nc(N3CCCC[C@H]3CO)ccc2c1=O | 85 nM

Quick one: give me EC50 for each item below, same order please.
1. CC(C)C(NC(=O)c1cn(-c2ccc(F)cc2F)c2nc(N(C)C)ccc2c1=O)C(F)(F)F (racemic)
2. O=C(NC12CC3CC(CC(C3)C1)C2)c1cn(-c2ccc(F)cc2F)c2nc(N3CC4C(C3)C4(F)F)ccc2c1=O (stereo not shown)
3. N#CC1CCCN(c2ccc3c(=O)c(C(=O)NC45CC6CC(CC(C6)C4)C5)cn(-c4ccc(F)cc4F)c3n2)C1 (stereo not shown)

Reply:
72 nM
17 nM
60 nM

EC50 recorded for this molecule, CC[C@@H](NC(=O)c1cn(-c2ccc(F)cc2F)c2nc(N3C[C@@H](O)CC3=O)ccc2c1=O)C(F)(F)F , is 69 nM
